Collected IC50 values appear next to each entry.
TARGET OF ASSAY: CYP11A1 (Homo sapiens, UniProt P05108)
Construct: human H295R adrenocortical carcinoma cell line was used as source of enzyme; endogenous in cells
Sequence (P05108 40-521): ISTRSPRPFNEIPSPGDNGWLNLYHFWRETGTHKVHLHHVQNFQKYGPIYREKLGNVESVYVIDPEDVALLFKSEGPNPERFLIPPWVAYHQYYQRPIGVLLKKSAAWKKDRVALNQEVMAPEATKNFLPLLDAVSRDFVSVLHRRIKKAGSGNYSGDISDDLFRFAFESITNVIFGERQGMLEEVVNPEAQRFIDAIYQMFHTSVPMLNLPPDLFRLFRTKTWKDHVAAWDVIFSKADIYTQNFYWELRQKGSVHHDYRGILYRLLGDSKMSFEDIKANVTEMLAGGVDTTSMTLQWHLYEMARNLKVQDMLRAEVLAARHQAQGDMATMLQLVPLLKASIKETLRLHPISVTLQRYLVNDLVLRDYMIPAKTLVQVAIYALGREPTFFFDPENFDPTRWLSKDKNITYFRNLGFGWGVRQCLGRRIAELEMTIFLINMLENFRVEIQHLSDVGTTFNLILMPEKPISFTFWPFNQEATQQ
EXPERIMENT SUMMARY: CYP11A1 inhibition, isocaproic acid release assay (IARA) in H295R cells
ASSAY CONTEXT: human H295R adrenocortical carcinoma cell line, three days, 3 nM [24,25-3H]-labelled cholesterol; read-out: IC50 on CYP11A1 inhibition (Group)

Some compounds with recorded IC50:
{"COMPOUND": "COCCN(C)C(=O)c1ccc(COc2ccc(CN3Cc4ccccc4C3)cc2S(C)(=O)=O)cc1 [Compound 69]", "IC50": "< 100 nM"}
{"COMPOUND": "CC(O)c1ccc2c(c1)CN(Cc1cc(=O)c(OCC3CCN(S(C)(=O)=O)CC3)co1)C2 (stereo not shown) [Compound 93]", "IC50": "201 to 2000 nM"}
{"COMPOUND": "CS(=O)(=O)N1CC2(CC(COc3coc(CN4CCc5ccccc5C4)cc3=O)C2)C1 [Compound 62]", "IC50": "201 to 2000 nM"}

Look at this compound and give its reported IC50. C/C(=N\O)c1ccc2c(c1)CN(Cc1cc(=O)c(OCC3CCN(S(C)(=O)=O)CC3)co1)C2 [Compound 90]
101 to 200 nM

---

TARGET OF ASSAY: recombinant human cytochrome P450 (CYP) CYP3A4 enzyme (Homo sapiens)
EXPERIMENT SUMMARY: Formation of reactive metabolites, trapping with GSH, KCN and SCA
ASSAY CONTEXT: test compound 10 μM, recombinant human CYP3A4, NADPH, 1 hour, pH 7.4
Collected Number of SCA trapped metabolites values appear next to each entry.

Some compounds with recorded Number of SCA trapped metabolites:
{"COMPOUND": "CS(=O)(=O)N1CCC(COc2coc(CN3Cc4ccc(-c5nnco5)cc4C3)cc2=O)CC1", "Number of SCA trapped metabolites": "2 (trace)"}
{"COMPOUND": "C/C(=N\\O)c1ccc2c(c1)CN(Cc1cc(=O)c(OCC3CCN(S(C)(=O)=O)CC3)co1)C2", "Number of SCA trapped metabolites": "1 (trace)"}
{"COMPOUND": "CC(=O)c1ccc2c(c1)CN(Cc1cc(=O)c(OCC3CCN(S(C)(=O)=O)CC3)co1)C2", "Number of SCA trapped metabolites": "1 (trace)"}

Look at this compound and give its reported Number of SCA trapped metabolites. CC(c1cc(=O)c(OCC2CCN(S(C)(=O)=O)CC2)co1)N1Cc2ccc(-c3ncco3)cc2C1 (stereo not shown) [Compound 17b]
1 (trace)
